biological target: Tyrosine-protein kinase Blk (Homo sapiens, UniProt P51451); experiment: Inhibition of (S)-3-(3-(5-acrylamido-6-(3-(5-(2-methyl-5-(3-(trifluoromethyl)benzamido)benzamido)pyrimidin-2-ylamino)phenylamino)-6-oxohexylamino)-3-oxopropyl)-5,5-difluoro-7,9-dimethyl-5H-dipyrrolo[1,2-c:1',2'-f][1,3,2]diazaborinin-4-ium-5-uide binding to BLK in human NAMALVA cells preincubated for 1 hr followed by compound washout for three times and treated with probe for 1 hr by competitive labeling assay; assay type: cell-based
Sequence (P51451 whole entry): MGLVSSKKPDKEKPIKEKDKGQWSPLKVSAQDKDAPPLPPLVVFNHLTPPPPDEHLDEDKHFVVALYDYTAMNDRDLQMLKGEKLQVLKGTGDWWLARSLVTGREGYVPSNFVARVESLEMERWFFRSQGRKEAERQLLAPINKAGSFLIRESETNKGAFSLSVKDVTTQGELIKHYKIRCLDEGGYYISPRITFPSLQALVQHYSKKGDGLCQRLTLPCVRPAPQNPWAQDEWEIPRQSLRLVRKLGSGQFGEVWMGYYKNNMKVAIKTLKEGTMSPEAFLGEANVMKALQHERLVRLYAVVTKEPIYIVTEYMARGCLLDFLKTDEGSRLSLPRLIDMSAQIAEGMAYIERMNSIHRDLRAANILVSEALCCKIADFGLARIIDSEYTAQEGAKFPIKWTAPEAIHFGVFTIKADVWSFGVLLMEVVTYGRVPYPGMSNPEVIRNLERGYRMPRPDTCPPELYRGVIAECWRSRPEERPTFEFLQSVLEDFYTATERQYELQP
quantity.kind: IC50
The reply should consist of the numeric value with the unit placed after it.

smiles.entry	IC50
Cc1ccc(NC(=O)c2ccc3cnccc3c2)cc1C(=O)Nc1cnc(Nc2cccc(NC3CCN(C(=O)/C=C/CN(C)C)CC3)c2)nc1	12 nM
C=CC(=O)N1CCC(Nc2cccc(Nc3ncc(NC(=O)c4cc(NC(=O)c5ccc6cnccc6c5)ccc4C)cn3)c2)CC1	5.5 nM

Now for a further molecule.
q: # IC50 lookup, item `C=CC(=O)Nc1cccc(Nc2ncc(NC(=O)c3cc(NC(=O)c4cccc(C(F)(F)F)c4)ccc3C)cn2)c1`
a: 15 nM
